SYSTEM: Tyrosine-protein kinase HCK (Homo sapiens) (UniProt P08631);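 also: values are mean inhibition of HCK, taken from the GSK_PKIS kinase profiling screen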
Sequence (P08631 2-526 limits assumed): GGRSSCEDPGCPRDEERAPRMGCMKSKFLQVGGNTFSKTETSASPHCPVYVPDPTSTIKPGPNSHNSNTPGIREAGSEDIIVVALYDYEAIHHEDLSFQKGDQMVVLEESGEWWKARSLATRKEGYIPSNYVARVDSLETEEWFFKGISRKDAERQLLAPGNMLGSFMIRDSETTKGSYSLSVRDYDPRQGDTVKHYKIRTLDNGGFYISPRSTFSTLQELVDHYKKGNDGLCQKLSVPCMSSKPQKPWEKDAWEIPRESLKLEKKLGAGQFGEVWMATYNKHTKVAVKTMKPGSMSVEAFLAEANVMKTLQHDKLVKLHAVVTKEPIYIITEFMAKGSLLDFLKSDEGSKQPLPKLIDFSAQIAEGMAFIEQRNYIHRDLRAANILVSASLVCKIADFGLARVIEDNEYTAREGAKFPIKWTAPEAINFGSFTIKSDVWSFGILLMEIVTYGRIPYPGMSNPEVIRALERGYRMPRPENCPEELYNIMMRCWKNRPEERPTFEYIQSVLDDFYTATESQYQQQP
CONDITION_CONTEXT: at 0.1 µM
Consider the following compounds and their measured inhibition readings.
Entry rule: numbers only, all in %.

Take a look at these entries with their results.
> print(dat)
                                   compound  reading
1  CCc1cccc(NC(=O)Nc2ccc(Oc3ccc4nc(NC(=O)OC)[nH]c4c3)cc2)c1     4.76
2  Fc1cccc(COc2ccc(Nc3ncnc4cc(-c5ccc[nH]5)sc34)cc2Cl)c1     3.68
3  CN1CCC(C(=O)Nc2n[nH]c3nnc(-c4ccccc4)cc23)CC1     3.42
4  CCn1c(-c2nonc2N)nc2cnc(Oc3cccc(NC(=O)c4ccc(OCCN5CCOCC5)cc4)c3)cc21     6.47
5  CCn1c(-c2nonc2N)nc2cncc(C(=O)N3CC[C@H](N)C3)c21     6.43
6  CCn1c(-c2nonc2N)nc2c(C#CC(C)(C)O)nc(OC[C@@H](N)c3ccccc3)cc21     5.84
7  O=C1NC(=O)C(N2CCc3ccccc32)=C1c1ccc(Cl)cc1     8.78
8  O=C1NC(=O)C(c2cccc(Cl)c2)=C1Nc1ccc(O)c(Cl)c1     1.14

[in] Requested field: inhibition. Item: O=C(Nc1n[nH]c2nc(-c3ccco3)c(Br)cc12)C1CC1
[out] 5.5

[in] Can you handle CN(C)c1cc2c(Nc3ccc4nc(Cc5ccccc5)[nH]c4c3)ncnc2cn1 next?
[out] 11.5

[in] Query CC1=C(C(=O)Nc2ccc3[nH]ncc3c2)C(c2ccc(Cl)c(Cl)c2)CC(=O)N1 (stereo not drawn) next
[out] 6.21

[in] What do you have for COc1ccc(COc2ccc(Cc3cnc(N)nc3N)cc2OC)cc1 ?
[out] 3.28

[in] And for Fc1cccc(COc2ccc(Nc3ncnc4sc(-c5cccs5)cc34)cc2Cl)c1 ?
[out] 1.68

[in] For COc1cc2ncn(-c3cc(O[C@@H](C)c4ccccc4Cl)c(C(N)=O)s3)c2cc1OC then?
[out] 10.8

[in] Again, but for CS(=O)(=O)CCNCc1ccc(-c2ccc3ncnc(Nc4ccc(OCc5cccc(F)c5)c(C(F)(F)F)c4)c3c2)o1
[out] 5.21

[in] Entry Cc1ccc(NC(=O)c2ccnc(N3CCCC3)c2)cc1-c1ccc(C(=O)NCC2CC2)cc1 please
[out] 4.55

[in] Can you handle NC(=O)c1cccc(Nc2nccc(Nc3cccc4[nH]ncc34)n2)c1 next?
[out] 64

[in] Same again, this time with CS(=O)(=O)CCNCc1nc(-c2ccc3ncnc(Nc4ccc(F)c(Cl)c4)c3c2)cs1
[out] 4.76

[in] Can you check Cn1cc(C=C2C(=O)Nc3cccnc32)c2ccccc21 next?
[out] 6.56

[in] Next: COc1cc(C)c(NC(=O)CN(C)C)cc1Nc1nc(Nc2cccc(F)c2C(N)=O)c2cc[nH]c2n1
[out] 4.13

[in] Thanks! And Cc1nn(C)c2cc(N(C)c3ccnc(Nc4cccc(S(N)(=O)=O)c4)n3)ccc12 ?
[out] 12.8

[in] Another compound to check: COc1ccc2cc(-c3c(-c4ccncc4)nc(-c4ccc([S+](C)[O-])cc4)n3C)ccc2c1 (stereo not drawn)
[out] 4.09
